Quick reference for furin cleavage Z-score among some sequences
- study-target: furin, P09958;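 also: purified furin at 1:10 enzyme:substrate in 50 mM HEPES pH 7.5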
- Sequence (P09958 whole entry): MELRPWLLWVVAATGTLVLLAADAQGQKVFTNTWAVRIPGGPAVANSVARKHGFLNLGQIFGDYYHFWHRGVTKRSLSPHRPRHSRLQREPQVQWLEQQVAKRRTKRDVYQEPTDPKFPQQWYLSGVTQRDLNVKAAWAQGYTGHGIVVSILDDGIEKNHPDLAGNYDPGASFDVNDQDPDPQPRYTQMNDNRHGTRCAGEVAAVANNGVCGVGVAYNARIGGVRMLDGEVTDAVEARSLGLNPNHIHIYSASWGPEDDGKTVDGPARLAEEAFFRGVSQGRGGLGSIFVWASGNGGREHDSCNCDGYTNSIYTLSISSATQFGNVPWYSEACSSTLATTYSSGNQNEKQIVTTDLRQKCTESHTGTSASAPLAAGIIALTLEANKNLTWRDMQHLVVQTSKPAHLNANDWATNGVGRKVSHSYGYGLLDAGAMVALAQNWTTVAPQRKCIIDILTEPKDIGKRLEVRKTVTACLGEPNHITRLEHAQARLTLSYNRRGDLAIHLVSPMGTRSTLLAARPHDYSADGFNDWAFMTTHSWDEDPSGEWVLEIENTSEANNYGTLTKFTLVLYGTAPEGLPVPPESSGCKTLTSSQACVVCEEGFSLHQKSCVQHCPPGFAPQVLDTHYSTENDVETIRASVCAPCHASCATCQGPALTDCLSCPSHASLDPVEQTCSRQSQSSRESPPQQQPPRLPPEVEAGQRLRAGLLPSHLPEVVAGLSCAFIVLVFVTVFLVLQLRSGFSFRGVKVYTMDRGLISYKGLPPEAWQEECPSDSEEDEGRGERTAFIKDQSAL
- protocol: furin cleavage Z-score vs untreated control; higher = more cleavage, active = 3.5 or more, inactive = 1 or less, 8 variable residues between constant flanks
- measurement-conditions: 15 min
The other results are listed elsewhere or left out. The hit rate among all sequences tested is not known here.
Reply with just the number.

Please review the entries below; each comes with its answer.
>>> df
                 input_sequence  endpoint_result
0   CAFRARFRRLAGNASASA [FS-526]             12.1
1   CAEHPCHRPSAGNASASA [HC2335]            0.873
2  CARRKRQVYGAGNASASA [FS-3204]             7.43

Consider now this further sequence.
furin cleavage Z-score recorded for this sequence, CAFLTRVEAQAGNASASA [HC585] , is 1.44

Reference source: the supplement of paper PMC3545927
